Conditions: a range is the spread between reports
Quick reference: melting point of the listed items.

melting point reported for this compound `CCOC(=O)C(C)(C)C` : -90 to -89.5 °C

melting point reported for this compound `C#CC(C)C` : -90 to -89.7 °C

melting point reported for this compound `Cc1cccs1` : -63.4 to -63 °C

melting point reported for this compound `N#Cc1ccccc1C=O` : 104 to 108 °C

melting point reported for this compound `CCCCCCCCCCCCCCCC` : 18 to 18.1 °C

melting point reported for this compound `COc1ccc2c(c1)c(CC(=O)O)c(C)n2C(=O)c1ccc(Cl)cc1` : 158 to 160 °C

melting point reported for this compound `C=CCCCCCC` : -102 °C

---

Settings: a range is the spread between reports
Quick reference: melting point of the listed items.

melting point reported for this compound `CCCCCCCCCc1ccc(O)cc1` : 42 to 45 °C

melting point reported for this compound `COc1cc(Cc2cnc(N)nc2N)cc(OC)c1OC` : 200 to 201 °C

melting point reported for this compound `Cc1ccc(N)cc1N` : 97 to 99 °C

melting point reported for this compound `BrCC(Br)Br` : -29.3 to -29 °C

melting point reported for this compound `Nc1ccc(/C=C/c2ccc([N+](=O)[O-])cc2)c([N+](=O)[O-])c1` : 198 to 202 °C

---

Settings: a range is the spread between reports
assay_readout: melting point

Answered cases to consult:
compound: CC(=O)c1ccc(C)s1
melting point: 26 to 27.5 °C

compound: CC(C)(C)c1cc(C=O)cc(C(C)(C)C)c1O
melting point: 186 to 188 °C

compound: CC(Br)CBr (configuration not stated)
melting point: -55.5 to -55 °C

compound: O=C(/C=C/c1ccc2ccccc2c1)/C=C/c1ccc2ccccc2c1
melting point: 242 to 245 °C

compound: COCCOc1c(OC)cc(Cc2cnc(N)nc2N)cc1OC
melting point: 154 °C

compound: O=C(O)CCCCCC(=O)O
melting point: 104 to 106 °C

compound: Cc1ccc(O)c(C(=O)O)c1
melting point: 151 to 153 °C

compound: CC(CO)(CO)C(=O)O
melting point: 189 to 190 °C

melting point reported for this compound `COc1ccc2ccccc2c1C=O` : 83 to 84 °C

melting point reported for this compound `C=CC(C)(C)CC` : -134 °C

melting point reported for this compound `CC(=CC(=O)O)C(=O)O` : 90 to 93.5 °C

melting point reported for this compound `Cc1c(Br)cc(Br)cc1Br` : 69 to 70 °C

melting point reported for this compound `CCCS` : -113 °C

---

Settings: a range is the spread between reports
Quick reference: melting point of the listed items.

item_smiles: C1COCOC1
measured_result: -45 to -42 °C

melting point reported for this compound `O=Cc1ccc(Cl)c(Cl)c1` : 43 to 44 °C

melting point reported for this compound `OC1CCCCCCCCCCC1` : 76 to 78 °C

melting point reported for this compound `Brc1cccc(I)c1` : -9.3 to -9 °C

melting point reported for this compound `Fc1ccc(N=C=S)cc1` : 26 to 27 °C

---

Conditions: a range is the spread between reports
Quick reference: melting point of the listed items.

Answered cases to consult:
item_smiles: C[Si]1(C)O[Si](C)(C)O[Si](C)(C)O1
melting point: 60 to 65 °C
--
item_smiles: COc1ccc(N)cc1Cl
melting point: 50 to 52.5 °C
--
item_smiles: c1ccc(/N=N/c2ccccc2)cc1
melting point: 67 to 69 °C

Okay, next one:
melting point reported for this compound `Cn1ccc(=O)n(C)c1=O` : 120 to 121 °C
